Test system: NCI-H23 complex spheroids with HUVEC/MSC, viability
experiment: Anticancer human tumor NCI-H23 cell line growth inhibition [RAS]; active means viability on the fitted dose curve at most 10% of control; inactive means the rest;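 further: spheroids exposed to compound for 7 days; 100% = DMSO vehicle control viability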
experimental-context: second compound 0.1 µM; first compound 0.0316 µM
Pick one and only one: 1 = active, 0 = inactive

[in] Which result was noted for this compound in the test: C=CC(=O)N1CCN(c2nc(OCC3CCCN3C)nc3c(F)c(-c4nc(N)cc(C)c4C(F)(F)F)c(Cl)cc23)C(C)C1 (centres undefined) + C#Cc1c(F)ccc2cc(O)cc(-c3ncc4c(N5CC6CCC(C5)N6)nc(OCC56CCCN5CC(F)C6)nc4c3F)c12
[out] 0

[in] Which result was noted for this compound in the test: CCN1CCN(Cc2ccc(Nc3ncc(F)c(-c4cc(F)c5nc(C)n(C(C)C)c5c4)n3)nc2)CC1 + C=CC(=O)N1CCN(c2nc(OCC3CCCN3C)nc3c(F)c(-c4nc(N)cc(C)c4C(F)(F)F)c(Cl)cc23)C(C)C1
[out] 0

[in] Which result was noted for this compound in the test: CC(=O)OC12COC1CC(O)C1(C)C(=O)C(O)C3=C(C)C(OC(=O)C(O)C(NC(=O)OC(C)(C)C)c4ccccc4)CC(O)(C(OC(=O)c4ccccc4)C21)C3(C)C (centres undefined) + C#Cc1c(F)ccc2cc(O)cc(-c3ncc4c(N5CC6CCC(C5)N6)nc(OCC56CCCN5CC(F)C6)nc4c3F)c12
[out] 0

[in] Which result was noted for this compound in the test: CCC(CC)c1cc(NC2CCC(N)C2)n2nccc2n1 (centres undefined) + C#Cc1c(F)ccc2cc(O)cc(-c3ncc4c(N5CC6CCC(C5)N6)nc(OCC56CCCN5CC(F)C6)nc4c3F)c12
[out] 0

[in] Which result was noted for this compound in the test: Nc1ccn(C2OC(CO)C(O)C2(F)F)c(=O)n1 (centres undefined) + C=CC(=O)N1CCN(c2nc(OCC3CCCN3C)nc3c(F)c(-c4nc(N)cc(C)c4C(F)(F)F)c(Cl)cc23)C(C)C1
[out] 1

[in] Which result was noted for this compound in the test: O=C(c1ccc(F)c(F)c1Nc1ccc(I)cc1F)N1CC(O)([C@@H]2CCCCN2)C1 + C#Cc1c(F)ccc2cc(O)cc(-c3ncc4c(N5CC6CCC(C5)N6)nc(OCC56CCCN5CC(F)C6)nc4c3F)c12
[out] 0

[in] Which result was noted for this compound in the test: CC(C)NCC(C(=O)N1CCN(c2ncnc3c2C(C)CC3O)CC1)c1ccc(Cl)cc1 (centres undefined) + C=CC(=O)N1CCN(c2nc(OCC3CCCN3C)nc3c(F)c(-c4nc(N)cc(C)c4C(F)(F)F)c(Cl)cc23)C(C)C1
[out] 0

[in] Which result was noted for this compound in the test: CCC(CC)c1cc(NC2CCC(N)C2)n2nccc2n1 (centres undefined) + C=CC(=O)N1CCN(c2nc(OCC3CCCN3C)nc3c(F)c(-c4nc(N)cc(C)c4C(F)(F)F)c(Cl)cc23)C(C)C1
[out] 0

[in] Which result was noted for this compound in the test: CC(C)n1nc(-c2ccc3oc(N)nc3c2)c2c(N)ncnc21 + C#Cc1c(F)ccc2cc(O)cc(-c3ncc4c(N5CC6CCC(C5)N6)nc(OCC56CCCN5CC(F)C6)nc4c3F)c12
[out] 0

[in] Which result was noted for this compound in the test: NC1c2ccccc2OC12CCN(c1cnc3c(N4CCCc5ncccc54)n[nH]c3n1)CC2 (centres undefined) + C=CC(=O)N1CCN(c2nc(OCC3CCCN3C)nc3c(F)c(-c4nc(N)cc(C)c4C(F)(F)F)c(Cl)cc23)C(C)C1
[out] 0

[in] Which result was noted for this compound in the test: CC(C)NCC(C(=O)N1CCN(c2ncnc3c2C(C)CC3O)CC1)c1ccc(Cl)cc1 (centres undefined) + C#Cc1c(F)ccc2cc(O)cc(-c3ncc4c(N5CC6CCC(C5)N6)nc(OCC56CCCN5CC(F)C6)nc4c3F)c12
[out] 0

[in] Which result was noted for this compound in the test: Cc1nc(N2CCC3(CC2)COC(C)C3N)c(CO)nc1Sc1ccnc(N)c1Cl (centres undefined) + C#Cc1c(F)ccc2cc(O)cc(-c3ncc4c(N5CC6CCC(C5)N6)nc(OCC56CCCN5CC(F)C6)nc4c3F)c12
[out] 0

[in] Which result was noted for this compound in the test: CC(Nc1ccc2c(c1)OCCn1cc(N3C(=O)OCC3C(F)F)nc1-2)C(N)=O (centres undefined) + C=CC(=O)N1CCN(c2nc(OCC3CCCN3C)nc3c(F)c(-c4nc(N)cc(C)c4C(F)(F)F)c(Cl)cc23)C(C)C1
[out] 0

[in] Which result was noted for this compound in the test: CCN1CCN(Cc2ccc(Nc3ncc(F)c(-c4cc(F)c5nc(C)n(C(C)C)c5c4)n3)nc2)CC1 + C#Cc1c(F)ccc2cc(O)cc(-c3ncc4c(N5CC6CCC(C5)N6)nc(OCC56CCCN5CC(F)C6)nc4c3F)c12
[out] 0

[in] Which result was noted for this compound in the test: C=CC(=O)Nc1cc(Nc2nccc(-c3cn(C)c4ccccc34)n2)c(OC)cc1N(C)CCN(C)C + C=CC(=O)N1CCN(c2nc(OCC3CCCN3C)nc3c(F)c(-c4nc(N)cc(C)c4C(F)(F)F)c(Cl)cc23)C(C)C1
[out] 0

[in] Which result was noted for this compound in the test: C[C@@H](NC(=O)c1ncnc(N)c1Cl)c1ncc(C(=O)Nc2cc(C(F)(F)F)c(Cl)cn2)s1 + C#Cc1c(F)ccc2cc(O)cc(-c3ncc4c(N5CC6CCC(C5)N6)nc(OCC56CCCN5CC(F)C6)nc4c3F)c12
[out] 0

[in] Which result was noted for this compound in the test: O=C(c1ccc(F)c(F)c1Nc1ccc(I)cc1F)N1CC(O)([C@@H]2CCCCN2)C1 + C=CC(=O)N1CCN(c2nc(OCC3CCCN3C)nc3c(F)c(-c4nc(N)cc(C)c4C(F)(F)F)c(Cl)cc23)C(C)C1
[out] 0

[in] Which result was noted for this compound in the test: NC1c2ccccc2OC12CCN(c1cnc3c(N4CCCc5ncccc54)n[nH]c3n1)CC2 (centres undefined) + C#Cc1c(F)ccc2cc(O)cc(-c3ncc4c(N5CC6CCC(C5)N6)nc(OCC56CCCN5CC(F)C6)nc4c3F)c12
[out] 0

[in] Which result was noted for this compound in the test: CC1(O)CCCC1n1c(=O)c(C(F)F)cc2cnc(NC3CCN(S(C)(=O)=O)CC3)nc21 (centres undefined) + C#Cc1c(F)ccc2cc(O)cc(-c3ncc4c(N5CC6CCC(C5)N6)nc(OCC56CCCN5CC(F)C6)nc4c3F)c12
[out] 0
